Test: Residual solvent content by gas chromatography
Type: physicochemical
Settings: gas chromatography (GC); hydrochloride
Recorded Residual solvent content (%) for the following compounds
Assay endpoint: Residual solvent content (%)

{"Compound": "COc1cccc2c1C(=O)c1c(O)c3c(c(O)c1C2=O)CC(O)(C(C)=O)CC3OC1CC(N)C(O)C(C)O1.Cl (stereo not drawn) [Ex.7, DM hydrochloride]", "Assay endpoint": "Residual solvent content (%)", "Endpoint value": 0.05}
{"Compound": "COc1cccc2c1C(=O)c1c(O)c3c(c(O)c1C2=O)CC(O)(C(C)=O)CC3OC1CC(N)C(O)C(C)O1.Cl (stereo not drawn) [Ex.8, DM hydrochloride]", "Assay endpoint": "Residual solvent content (%)", "Endpoint value": 0.95}
{"Compound": "COc1cccc2c1C(=O)c1c(O)c3c(c(O)c1C2=O)CC(O)(C(C)=O)CC3OC1CC(N)C(O)C(C)O1.Cl (stereo not drawn) [Ex.4, DM hydrochloride]", "Assay endpoint": "Residual solvent content (%)", "Endpoint value": 0.50}
